molecular target: human Claudin-6 (CLDN6) (human) (UniProt P56747); experiment: FACS, limiting dilution, ARK2 cells
MEASURED_PARAMETER: FACS signal at 1.6 nM
Lab note: write the figure by itself, no unit.

Recorded results for 5 binders are shown here.
- BINDER: "AB S4 (antibody, V domains shown) VH: EVQLLESGGGLVQPGGSMRLSCAASGFTFSNYWMNWVRQAPGKGLEWIAQIRLKSDNYATHYTDSVKGRFTISRDDSKSTVYLQMNSLRAEDTGTYYCNDGPPSGSWGQGTLLTVSS VL: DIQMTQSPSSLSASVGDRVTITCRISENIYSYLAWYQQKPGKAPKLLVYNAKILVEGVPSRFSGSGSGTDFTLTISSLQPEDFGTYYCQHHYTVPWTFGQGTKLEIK"
  FACS signal at 1.6 nM: 438
- BINDER: "AB S1 (antibody, V domains shown) VH: EVQLLESGGGLVQPGGSMRLSCAASGFTFSNYWMNWVRQAPGKGLEWIAQIRLKSDNYATHYTDSVKGRFTISRDDSKRTVYLQMNSLRAEDTGTYYCSDGPPSGSWGQGTLLTVSS VL: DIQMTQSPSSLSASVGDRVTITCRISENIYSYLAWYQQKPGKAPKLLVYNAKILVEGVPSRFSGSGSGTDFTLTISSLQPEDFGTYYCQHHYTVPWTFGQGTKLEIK"
  FACS signal at 1.6 nM: 1380
- BINDER: "AB S2 (antibody, V domains shown) VH: EVQLLESGGGLVQPGGSMRLSCAASGFTFSNYWMNWVRQAPGKGLEWIAQIRLKSDNYATHYADSVKGRFTISRDDSKRTVYLQMNSLRAEDTGTYYCSDGPPSGSWGQGTLLTVSS VL: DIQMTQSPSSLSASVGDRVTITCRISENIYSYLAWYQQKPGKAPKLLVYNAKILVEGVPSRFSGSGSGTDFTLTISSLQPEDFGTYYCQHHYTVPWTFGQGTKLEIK"
  FACS signal at 1.6 nM: 956
- BINDER: "AB S3 (antibody, V domains shown) VH: EVQLLESGGGLVQPGGSMRLSCAASGFTFSNYWMNWVRQAPGKGLEWIAQIRLKSDNYVTHYTDSVKGRFTISRDDSKRTVYLQMNSLRAEDTGIYYCSDGPPSGSWGQGTLLTVSS VL: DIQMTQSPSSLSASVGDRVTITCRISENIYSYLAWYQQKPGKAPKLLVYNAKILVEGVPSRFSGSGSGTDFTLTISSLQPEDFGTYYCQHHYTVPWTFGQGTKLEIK"
  FACS signal at 1.6 nM: 933
- BINDER: "AB S10 (antibody, V domains shown) VH: QVQLVQSGAEVKKPGASVKMSCKASGYTFTTYTMHWVRQAPGQGLEWIGFINPSSGYTEYAQKFQGRVTLTADKSTSTVYMELSSLRSEDTAVYYCANGDYYVGYWGQGTLVTVSS VL: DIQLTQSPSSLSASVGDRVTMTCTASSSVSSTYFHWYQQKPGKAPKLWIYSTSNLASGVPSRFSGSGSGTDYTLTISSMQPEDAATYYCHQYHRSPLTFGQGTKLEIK"
  FACS signal at 1.6 nM: 7690

Next binder, please.
Record AB S5 (antibody, V domains shown) VH: EVQLLESGGGLVQPGGSMRLSCAASGFTFSNYWMNWVRQAPGKGLEWLAQIRLKSDNYATHYTDSVKGRFTISRDDSKRTVYLQMNSLRAEDTGIYYCSDGPPSGSWGQGTLLTVSS VL: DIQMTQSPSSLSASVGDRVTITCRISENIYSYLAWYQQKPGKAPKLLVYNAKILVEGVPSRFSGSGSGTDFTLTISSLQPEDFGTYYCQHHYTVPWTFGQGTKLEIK , field FACS signal at 1.6 nM: 997

Value source: patent US20230049752A1
